ASSAYED_TARGET: Human recombinant MMP-2 (Homo sapiens, UniProt P08253)
Construct: made in house; host or cells: MMP-2-transfected p2AHT2 cells
Sequence (P08253 110-660): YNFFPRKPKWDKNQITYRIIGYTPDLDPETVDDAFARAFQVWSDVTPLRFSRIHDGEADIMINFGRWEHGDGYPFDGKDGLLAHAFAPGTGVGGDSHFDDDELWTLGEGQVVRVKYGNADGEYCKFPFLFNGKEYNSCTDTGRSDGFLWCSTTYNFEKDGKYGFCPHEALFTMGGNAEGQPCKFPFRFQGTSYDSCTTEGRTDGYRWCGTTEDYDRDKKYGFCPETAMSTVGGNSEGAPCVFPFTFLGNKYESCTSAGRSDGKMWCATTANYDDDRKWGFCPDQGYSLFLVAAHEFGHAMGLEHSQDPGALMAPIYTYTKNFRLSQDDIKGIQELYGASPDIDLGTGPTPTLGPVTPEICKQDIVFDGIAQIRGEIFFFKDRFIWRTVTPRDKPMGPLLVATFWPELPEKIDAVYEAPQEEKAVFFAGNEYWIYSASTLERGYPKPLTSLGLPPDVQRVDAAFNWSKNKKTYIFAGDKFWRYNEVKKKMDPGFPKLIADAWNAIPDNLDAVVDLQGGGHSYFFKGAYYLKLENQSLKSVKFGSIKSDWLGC
ASSAY_PROCEDURE: In vitro MMP inhibition analysis (fluorogenic peptide substrate cleavage), Ki
Assay type: biochemical
RECORDED_CONDITIONS: Table 1
pKi: −log10 of the molar value.
Where pKi equals or exceeds 9, the correct label is condition met; where it does not, the label is condition not met.

Solved cases below.
[
  {
    "COMPOUND": "O=C(NO)C1(S(=O)(=O)c2ccc(-c3ccc(CCCC(F)(F)F)cn3)cc2)CCOCC1",
    "ASSIGNED_LABEL": "condition met"
  },
  {
    "COMPOUND": "CCN1CCC(C(=O)NO)(S(=O)(=O)c2ccc(-c3ccc(CCCC(F)(F)F)cn3)cc2)CC1",
    "ASSIGNED_LABEL": "condition met"
  },
  {
    "COMPOUND": "COCCN1CCC(C(=O)NO)(S(=O)(=O)c2ccc(-c3ccc(CCC(C)(F)F)cn3)cc2)CC1",
    "ASSIGNED_LABEL": "condition met"
  },
  {
    "COMPOUND": "O=C(NO)C1(S(=O)(=O)c2ccc(-c3cnc(CCCC(F)(F)F)cn3)cc2)CCOCC1",
    "ASSIGNED_LABEL": "condition not met"
  },
  {
    "COMPOUND": "O=C(NO)C1(S(=O)(=O)c2ccc(-c3ccc(CCCC(F)F)cc3)cc2)CCOCC1",
    "ASSIGNED_LABEL": "condition met"
  }
]

Decide: is the reported value of pKi for "O=C(NO)C1(S(=O)(=O)c2ccc(-c3ccc(OC(F)(F)C(F)F)cc3)cc2)CCN(CCl)CC1" equal to or greater than 9? condition met

* * *

ASSAYED_TARGET: Human recombinant MMP-13 (Homo sapiens, UniProt P45452)
Construct: made in house; host or cells: baculovirus / insect cells
ASSAY_PROCEDURE: In vitro MMP inhibition analysis (fluorogenic peptide substrate cleavage), Ki
Assay type: biochemical
RECORDED_CONDITIONS: Table 2
QUANTITY_KIND: log10 Ki (log10 of the value in nM)
Please keep in mind that the values are log10 of Ki expressed in nM.

[
  {
    "COMPOUND": "CCN1CCC(C(=O)NO)(S(=O)(=O)c2ccc(-c3ccc(Oc4ccccc4)cc3)cc2)CC1",
    "log10 Ki": -0.13
  },
  {
    "COMPOUND": "O=C(NO)C1(S(=O)(=O)c2ccc(-c3ccc(CCC4CCCCC4)cn3)cc2)CCOCC1",
    "log10 Ki": -0.42
  },
  {
    "COMPOUND": "CN(C)C(=O)N1CCC(C(=O)NO)(S(=O)(=O)c2ccc(-c3ccc(CCC(F)(F)C(F)(F)F)cc3)cc2)CC1",
    "log10 Ki": -0.49
  },
  {
    "COMPOUND": "CO[C@H]1CC[C@](C(=O)NO)(S(=O)(=O)c2ccc(-c3cnc(CCC(F)(F)C(F)(F)F)cn3)cc2)CC1",
    "log10 Ki": -0.89
  },
  {
    "COMPOUND": "CCOCCOc1ccc(-c2ccc(S(=O)(=O)C3(C(=O)NO)CCN(CC)CC3)cc2)cc1",
    "log10 Ki": -1.30
  }
]

Quick one: log10 Ki of "CC(C)(C)CCNc1cnc(-c2ccc(S(=O)(=O)C3(C(=O)NO)CCOCC3)cc2)cn1" ? 0.10

I'd like to know its log10 Ki. The molecule in question is "CCCc1ccc(-c2ccc(S(=O)(=O)C3(C(=O)NO)CCOCC3)cc2)cc1" -0.86

Data provenance: patent US20060074243A1
